Can you tell me protein stability index for the items I'm about to list?
B1: PTPRD (parent)
chain: ITWFKDFLPVDTSNNNGRIKQLRS

- Variants of: B1
- measurement description: protein stability index of a GFP-peptide fusion (GPS, HEK-293T) (PSI 1-6); higher = more stable;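 note: lentivirally expressed fusions sorted by FACS into six bins by GFP to DsRed ratio, PSI derived from sequencing read proportions per bin multiplied by bin number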
- assay context: c terminus: a fixed tail appended
Answers are plain numbers.

# example entries with known answers
INSERT INTO results (sequence_variant, property, obs_value) VALUES
  ('F7Y', 'protein stability index', 1.99),
  ('R18N', 'protein stability index', 1.97),
  ('S13H', 'protein stability index', 2.05),
  ('I19E', 'protein stability index', 1.95),
  ('Q21P', 'protein stability index', 2.01);

Kindly give each listed record's protein stability index.
1. K20F
2. T2N

1. 1.98
2. 2

Item under review: L8G . Reported protein stability index? 2
